We begin with a simple list: items and their reported Ratio.
biological target: Sterol 14-alpha demethylase (Trypanosoma cruzi (strain CL Brener)) (UniProt Q7Z1V1); assay: Inhibitory potency at Trypanosoma cruzi CYP51 assessed as molar ratio of drug to enzyme required to slow down the reaction twofold at 1 uM enzyme concentration
Sequence (Q7Z1V1 whole entry, looked up): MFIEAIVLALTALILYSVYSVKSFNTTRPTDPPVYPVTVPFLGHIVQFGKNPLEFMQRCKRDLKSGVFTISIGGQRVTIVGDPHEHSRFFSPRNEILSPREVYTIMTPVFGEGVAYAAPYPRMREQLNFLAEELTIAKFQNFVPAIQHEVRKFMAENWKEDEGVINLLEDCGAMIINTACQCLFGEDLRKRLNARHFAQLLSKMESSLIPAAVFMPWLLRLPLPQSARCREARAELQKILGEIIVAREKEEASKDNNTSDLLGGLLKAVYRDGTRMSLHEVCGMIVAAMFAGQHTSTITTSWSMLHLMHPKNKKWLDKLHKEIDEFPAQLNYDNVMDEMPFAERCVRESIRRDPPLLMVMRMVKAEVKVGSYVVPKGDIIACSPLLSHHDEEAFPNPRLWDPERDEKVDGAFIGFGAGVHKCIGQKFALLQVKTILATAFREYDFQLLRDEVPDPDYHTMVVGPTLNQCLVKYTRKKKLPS
measured metric: Ratio

COc1ccc2c(c1)c(CC(=O)NCc1ccncc1)c(C)n2C(=O)c1ccc(Cl)cc1; 10
COc1ccc2c(c1)c(CC(=O)Nc1cccnc1)c(C)n2C(=O)c1ccc(Cl)cc1; 9.1
COc1ccc2c(c1)c(CC(=O)Nc1ncccn1)c(C)n2C(=O)c1ccc(Cl)cc1; 15
COc1ccc2c(c1)c(CC(=O)Nc1ccccn1)c(C)n2C(=O)c1ccc(Cl)cc1; 11
COc1ccc2c(c1)c(CC(=O)NCc1ccc(Cl)nc1)c(C)n2C(=O)c1ccc(Cl)cc1; 4.2

---

system: Trypanosoma cruzi; assay: Antitrypanosomal activity against Trypanosoma cruzi amastigotes in cardiomyocytes; type: functional; conditions: read-out: ED50 (the source's name)
measured metric: EC50

COc1ccc2c(c1)c(CC(=O)NCCc1cccnc1)c(C)n2C(=O)c1ccc(Cl)cc1; < 1 µM

---

biological target: Sterol 14-alpha demethylase (Trypanosoma cruzi (strain CL Brener)); experiment: Inhibitory potency at Trypanosoma cruzi CYP51 assessed as molar ratio of drug to enzyme required to slow down the reaction twofold at 1 uM enzyme concentration
Reported Ratio is given for each of the following compounds.
measured metric: Ratio

COc1ccc2c(c1)c(CC(=O)NCc1ccc(C(F)(F)F)nc1)c(C)n2C(=O)c1ccc(Cl)cc1; 7.7
CCC(C(=O)Nc1ccncc1)c1ccccc1 (stereo not drawn); 10
COc1ccc2c(c1)c(CC(=O)NCCc1cccnc1)c(C)n2C(=O)c1ccc(Cl)cc1; 6.3
O=C(Nc1ccncc1)C1c2ccccc2Oc2ccccc21; 14
COc1ccc2c(c1)c(CC(=O)NCc1ccccn1)c(C)n2C(=O)c1ccc(Cl)cc1; 13
COc1ccc2c(c1)c(CC(=O)NC(C)c1ccncc1)c(C)n2C(=O)c1ccc(Cl)cc1 (stereo not drawn); 8.5

---

biological target: Sterol 14-alpha demethylase (Trypanosoma cruzi (strain CL Brener), UniProt Q7Z1V1); experiment: Binding affinity to Trypanosoma cruzi CYP51 expressed in Escherichia coli by spectral titration
Sequence (Q7Z1V1 whole entry): as the sequence (Q7Z1V1 whole entry, looked up) above
pKd: −log10 of the molar value.
Catalogue of pKd readings, one per entry.
measured metric: pKd

COc1ccc2c(c1)c(CC(=O)NCc1ccncc1)c(C)n2C(=O)c1ccc(Cl)cc1; 6.27
COc1ccc2c(c1)c(CC(=O)NC(C)c1ccncc1)c(C)n2C(=O)c1ccc(Cl)cc1 (stereo not given); 6.43
O=C(Nc1ccncc1)C1c2ccccc2Oc2ccccc21; 6.12
COc1ccc2c(c1)c(CC(=O)NCCc1cccc(Cl)c1)c(C)n2C(=O)c1ccc(Cl)cc1; 6.44
COc1ccc2c(c1)c(CC(=O)NCc1ccccn1)c(C)n2C(=O)c1ccc(Cl)cc1; 5.12
COc1ccc2c(c1)c(CC(=O)NCC(C)c1ccccc1)c(C)n2C(=O)c1ccc(Cl)cc1 (stereo not given); 6.82
CCC(C(=O)Nc1ccncc1)c1ccccc1 (stereo not given); 6.36
COc1ccc2c(c1)c(CC(=O)Nc1cccnc1)c(C)n2C(=O)c1ccc(Cl)cc1; 6.54
COc1ccc2c(c1)c(CC(=O)NCCc1cccnc1)c(C)n2C(=O)c1ccc(Cl)cc1; 5.64
COc1ccc2c(c1)c(CC(=O)Nc1ccccn1)c(C)n2C(=O)c1ccc(Cl)cc1; 5.48
